# STUDY_TARGET: CDK2/Cyclin E1 (Homo sapiens (Human), UniProt P24941)
# PROTOCOL_SUMMARY: biochemical
# CONDITION_INFO: CDK2_Ki (nM), phosphorylated CDK2/Cyclin E1, 150 μM ATP, Morrison tight-binding fit
REPORTED_ENDPOINT: Ki (nM)

// known answers, use as guide
Request: Given Cc1cc2cnc(NC3CCN(S(=O)(=O)NC[C@@H]4CCCO4)CC3)nc2n([C@H]2CCC[C@]2(C)O)c1=O (single isomer, unassigned) , respond with its Ki.
Result: 3.59

Request: Look up Ki of "C[C@H]1CCC[C@H]1n1c(=O)c(Cl)cc2cnc(NC3CCN(S(C)(=O)=O)CC3)nc21" and report it.
Result: 0.27

Request: # return recorded Ki for entry C[C@H]1[C@@H](O)CCC[C@@H]1n1c(=O)ccc2cnc(NC3CCN(S(C)(=O)=O)CC3)nc21 (single isomer, unassigned)
Result: 2.06

Request: Return the recorded Ki value; entry: CC(F)(F)CNS(=O)(=O)N1CCC(Nc2ncc3ccc(=O)n([C@H]4CCC[C@]4(C)O)c3n2)CC1 (single isomer, unassigned)
Result: 4.05

P. C[C@]1(O)CCC[C@@H]1n1c(=O)c(C(F)F)cc2cnc(NC3CCN(S(N)(=O)=O)CC3)nc21 (single isomer, unassigned)
Q. C[C@@]1(O)CCC[C@H]1n1c(=O)c(CC(N)=O)cc2cnc(NC3CCN(S(C)(=O)=O)CC3)nc21 (single isomer, unassigned)
Request: Returns: the argument ( P or Q ) having the larger Ki. Write down the label of the entry you select.
Result: P
(P: 0.7 nM, Q: 0.38 nM)

---

# STUDY_TARGET: CDK2/Cyclin E1 (Homo sapiens (Human))
# PROTOCOL_SUMMARY: biochemical
# CONDITION_INFO: CDK2_Ki (nM), phosphorylated CDK2/Cyclin E1, 150 μM ATP, Morrison tight-binding fit
REPORTED_ENDPOINT: Ki (nM)

I. Cc1cc2cnc(NC3CCN(S(=O)(=O)NCC(C)(F)F)CC3)nc2n([C@@H]2CCC[C@@]2(C)O)c1=O (single isomer, unassigned)
II. C[C@]1(O)CCC[C@@H]1n1c(=O)c(Cl)cc2cnc(NC3CCN(S(N)(=O)=O)CC3)nc21 (single isomer, unassigned)
III. C[C@H]1CCC[C@H]1n1c(=O)c(CCO)cc2cnc(NC3CCN(S(C)(=O)=O)CC3)nc21
Request: Sort the items above by Ki, starting with the smallest value. Field: ranking. Enter the labels in the order requested.
Result: III, I, II
(III: 0.08 nM, I: 0.14 nM, II: 1.47 nM)

P. Cn1cc(S(=O)(=O)N2CCC(Nc3ncc4ccc(=O)n([C@H]5CCC[C@]5(C)O)c4n3)CC2)cn1 (single isomer, unassigned)
Q. C[C@]1(O)CCC[C@@H]1n1c(=O)c(CCO)cc2cnc(NC3CCN(S(C)(=O)=O)CC3)nc21 (single isomer, unassigned)
R. C[C@@]1(O)CCC[C@H]1n1c(=O)ccc2cnc(NC3CCN(S(=O)(=O)C4CCS(=O)(=O)C4)CC3)nc21 (single isomer, unassigned; isomer b) [Example 71]
Request: Sort (3 molecules) by Ki: min first. Please list the labels according to the requested order.
Result: R, Q, P

P. CCS(=O)(=O)N1CCC(Nc2ncc3ccc(=O)n(C4CCCC4)c3n2)CC1
Q. Cc1cc2cnc(NC3CCN(S(C)(=O)=O)CC3)nc2n([C@H]2CCC[C@H](O)C2)c1=O (single isomer, unassigned)
Request: For the pair P and Q , which entry has the numerically smaller recorded Ki? Your choice should be expressed through its label.
Result: P

P. CS(=O)(=O)N1CCC(Nc2ncc3cc(CC(F)F)c(=O)n(C4CCCC4)c3n2)CC1
Q. C[C@@]1(O)CCC[C@H]1n1c(=O)ccc2cnc(NC3CCN(S(=O)(=O)c4nncs4)CC3)nc21 (single isomer, unassigned)
Request: Among P and Q , which shows a numerically higher Ki result? Could you answer with the label of the item you picked?
Result: P

Reference source: patent US10233188B2
